Documented IC50 across a set of compounds
# testDetails: HGIII-sPLA2 enzyme inhibition potency – biochemical, QFRET, IC50, dose response (AID 743457);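 also: green fluorescence rise as the enzyme cleaves BODIPY PC-A2 in liposomes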
Active and inactive are the calls of the source.
assayMetric: IC50

compoundstructurestring=O=C(NC(=S)NNC(=O)c1cc2ccccc2cc1O)c1ccco1 observedvalue="> 40.6 µM (inactive)"
compoundstructurestring=CC(C)(C)c1csc(NNC(=O)c2ccc(Cl)cc2)n1 observedvalue="> 122 µM (inactive)"
compoundstructurestring=O=C(NNc1nc(-c2ccccc2)cs1)c1ccco1 observedvalue="> 122 µM (inactive)"
compoundstructurestring=Sc1nnc(CCc2ccccc2)n1-c1ccc(Cl)cc1 observedvalue="> 122 µM (inactive)"

* * *

# testTarget: Heat shock factor protein 1 (Mus musculus, UniProt P38532)
# Sequence (P38532 whole entry): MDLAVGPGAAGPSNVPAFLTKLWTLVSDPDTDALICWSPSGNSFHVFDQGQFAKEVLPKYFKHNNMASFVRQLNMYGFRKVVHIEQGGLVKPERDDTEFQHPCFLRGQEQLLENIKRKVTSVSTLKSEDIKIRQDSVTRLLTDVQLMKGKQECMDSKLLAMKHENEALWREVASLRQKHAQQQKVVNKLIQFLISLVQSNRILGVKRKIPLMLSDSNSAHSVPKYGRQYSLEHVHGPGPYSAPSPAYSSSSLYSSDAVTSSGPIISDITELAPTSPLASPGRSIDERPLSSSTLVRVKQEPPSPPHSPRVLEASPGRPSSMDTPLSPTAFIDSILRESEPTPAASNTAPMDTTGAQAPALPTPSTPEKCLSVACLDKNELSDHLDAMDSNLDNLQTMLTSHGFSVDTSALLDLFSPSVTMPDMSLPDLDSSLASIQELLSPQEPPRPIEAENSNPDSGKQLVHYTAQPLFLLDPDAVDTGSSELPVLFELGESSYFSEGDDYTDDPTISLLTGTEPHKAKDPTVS
# testDetails: enhancement of HSF1-driven luciferase signal – cell-based, NIH3T3, luminescence, dose retest, confirmation (AID 435004);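 also: stress induced by proteasome inhibitor MG132 added 30 min after compound; luciferase reporter driven by HSF1 response element in NIH3T3 cells; actives raise luminescence as potentiators of the MG132 stress response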
# Format: functional
Calls of active or inactive are those of the source.
Labels: Yes for active, No for inactive

molecule=Cc1onc(-c2ccccc2)c1C(=O)N/N=C/c1cccc(O)c1 testtarget="Heat shock factor protein 1 (Mus musculus, UniProt P38532)" assignedcategory=No
molecule=COC(=O)/C(=C\Nc1ccccc1N)c1ncc(C(F)(F)F)cc1Cl testtarget="Heat shock factor protein 1 (Mus musculus, UniProt P38532)" assignedcategory=No
molecule="CCCCNC1C(CC)C(CCC)C(C#N)(C#N)C1(C#N)C#N (stereo not given)" testtarget="Heat shock factor protein 1 (Mus musculus, UniProt P38532)" assignedcategory=Yes
molecule="CCOC(=O)C1=C(C)N=c2s/c(=C\\C(=O)OC)c(=O)n2C1c1ccc(OC)cc1 (stereo not given)" testtarget="Heat shock factor protein 1 (Mus musculus, UniProt P38532)" assignedcategory=Yes
molecule=CCN(CC(=O)Nc1ccc(NC(C)=O)cc1)Cc1c(O)ccc2cc(Br)ccc12 testtarget="Heat shock factor protein 1 (Mus musculus, UniProt P38532)" assignedcategory=Yes
molecule="CCOC(=O)C1CCCN(C(=O)c2ccc(Cl)c(S(=O)(=O)N3CCCCC3)c2)C1 (stereo not given)" testtarget="Heat shock factor protein 1 (Mus musculus, UniProt P38532)" assignedcategory=No
molecule=CC(=O)NCCC(=O)Nc1nc(-c2cccs2)c(-c2cccs2)s1 testtarget="Heat shock factor protein 1 (Mus musculus, UniProt P38532)" assignedcategory=No
molecule=COC(=O)N1C(=O)[C@@](c2ccccc2)(C2CCCC2)N1C(=O)OC testtarget="Heat shock factor protein 1 (Mus musculus, UniProt P38532)" assignedcategory=Yes
molecule=Cc1ccc(-n2c(SCC(=O)Nc3cc(S(=O)(=O)N4CCOCC4)ccc3Cl)nc3ccccc3c2=O)cc1 testtarget="Heat shock factor protein 1 (Mus musculus, UniProt P38532)" assignedcategory=No
molecule=CN(C)c1nc(NC(C)(C)C)nc(SCC(=O)Nc2ccccc2)n1 testtarget="Heat shock factor protein 1 (Mus musculus, UniProt P38532)" assignedcategory=No
molecule=Cc1ccc(NC(=O)c2cc3c(=O)oc4ccccc4c3s2)nc1 testtarget="Heat shock factor protein 1 (Mus musculus, UniProt P38532)" assignedcategory=No
molecule="CCOc1ccc(C2C3=C(O)CCCC3=Nc3ccc4ncccc4c32)cc1 (stereo not given)" testtarget="Heat shock factor protein 1 (Mus musculus, UniProt P38532)" assignedcategory=Yes
molecule=Cn1nnc2c[n+](CC(=O)c3ccc4ccccc4c3)cc(Br)c21 testtarget="Heat shock factor protein 1 (Mus musculus, UniProt P38532)" assignedcategory=Yes
molecule=CCCCN=C(S)N(Cc1ccco1)Cc1cc2cc3c(cc2nc1O)OCCO3 testtarget="Heat shock factor protein 1 (Mus musculus, UniProt P38532)" assignedcategory=No
molecule="O=[N+]([O-])CC(c1ccccc1)c1c(O)n[nH]c1-c1ccccc1O (stereo not given)" testtarget="Heat shock factor protein 1 (Mus musculus, UniProt P38532)" assignedcategory=Yes

* * *

# testTarget: Histone-lysine N-methyltransferase NSD2 (Homo sapiens)
# Sequence (O96028 whole entry): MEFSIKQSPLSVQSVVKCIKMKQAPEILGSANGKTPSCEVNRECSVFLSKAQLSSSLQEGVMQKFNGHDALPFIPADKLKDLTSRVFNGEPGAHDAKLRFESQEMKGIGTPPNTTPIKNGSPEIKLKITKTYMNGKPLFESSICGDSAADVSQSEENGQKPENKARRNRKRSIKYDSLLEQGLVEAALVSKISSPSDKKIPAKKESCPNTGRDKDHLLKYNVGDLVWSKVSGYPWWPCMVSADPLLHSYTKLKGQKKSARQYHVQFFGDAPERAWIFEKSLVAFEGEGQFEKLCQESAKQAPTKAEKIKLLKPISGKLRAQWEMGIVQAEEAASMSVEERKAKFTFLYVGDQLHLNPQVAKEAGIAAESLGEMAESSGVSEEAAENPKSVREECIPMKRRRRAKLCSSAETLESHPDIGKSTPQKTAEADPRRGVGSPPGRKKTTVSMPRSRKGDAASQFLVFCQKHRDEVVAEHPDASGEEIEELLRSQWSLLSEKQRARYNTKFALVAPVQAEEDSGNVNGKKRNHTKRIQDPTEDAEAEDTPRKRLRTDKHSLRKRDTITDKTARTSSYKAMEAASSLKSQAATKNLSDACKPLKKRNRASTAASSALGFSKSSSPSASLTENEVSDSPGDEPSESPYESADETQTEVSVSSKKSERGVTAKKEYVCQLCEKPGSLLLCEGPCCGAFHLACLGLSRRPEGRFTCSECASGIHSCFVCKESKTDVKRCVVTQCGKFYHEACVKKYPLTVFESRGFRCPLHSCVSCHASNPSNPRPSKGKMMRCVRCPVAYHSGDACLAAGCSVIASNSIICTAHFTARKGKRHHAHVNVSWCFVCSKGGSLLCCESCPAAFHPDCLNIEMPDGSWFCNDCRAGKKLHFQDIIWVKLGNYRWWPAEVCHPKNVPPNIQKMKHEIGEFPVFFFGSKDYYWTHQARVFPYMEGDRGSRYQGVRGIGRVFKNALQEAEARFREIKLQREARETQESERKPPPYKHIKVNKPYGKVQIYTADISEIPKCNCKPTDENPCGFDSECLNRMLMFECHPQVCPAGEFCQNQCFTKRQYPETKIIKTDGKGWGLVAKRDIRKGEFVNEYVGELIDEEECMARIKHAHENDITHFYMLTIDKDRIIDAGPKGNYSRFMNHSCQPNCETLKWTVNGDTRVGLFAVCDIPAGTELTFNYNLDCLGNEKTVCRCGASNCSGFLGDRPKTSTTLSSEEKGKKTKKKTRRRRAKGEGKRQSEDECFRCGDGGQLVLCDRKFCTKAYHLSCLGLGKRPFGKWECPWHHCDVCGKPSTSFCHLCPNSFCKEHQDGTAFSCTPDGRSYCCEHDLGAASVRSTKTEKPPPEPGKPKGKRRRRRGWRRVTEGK
# Type: biochemical
The source made the active and inactive calls.
Labels: active, inactive

compound=COC(=O)c1[nH]c2ccccc2c1/C=C1\C(=O)NC(=O)N(c2ccc(Br)cc2)C1=O testtarget="Histone-lysine N-methyltransferase NSD2 (Homo sapiens)" assignedcategory=inactive
compound=O=C(NCC1CC1)c1ccc(-n2ccnc2)c2ccoc12 testtarget="Histone-lysine N-methyltransferase NSD2 (Homo sapiens)" assignedcategory=active
compound=O=C(c1coc(=O)c(Br)c1)N1CCOCC1 testtarget="Histone-lysine N-methyltransferase NSD2 (Homo sapiens)" assignedcategory=active
compound=NC(S)=NN=Cc1ccc(-c2ccc(S(=O)(=O)Nc3ncccn3)cc2)o1 testtarget="Histone-lysine N-methyltransferase NSD2 (Homo sapiens)" assignedcategory=active
compound="CCCn1nc([N+](=O)[O-])c(C(C#N)c2nc3ccccc3s2)c(Cl)c1=O (stereo not given)" testtarget="Histone-lysine N-methyltransferase NSD2 (Homo sapiens)" assignedcategory=inactive

* * *

# testTarget: Paired box protein Pax-8 (Homo sapiens, UniProt Q06710)
# Sequence (Q06710 whole entry): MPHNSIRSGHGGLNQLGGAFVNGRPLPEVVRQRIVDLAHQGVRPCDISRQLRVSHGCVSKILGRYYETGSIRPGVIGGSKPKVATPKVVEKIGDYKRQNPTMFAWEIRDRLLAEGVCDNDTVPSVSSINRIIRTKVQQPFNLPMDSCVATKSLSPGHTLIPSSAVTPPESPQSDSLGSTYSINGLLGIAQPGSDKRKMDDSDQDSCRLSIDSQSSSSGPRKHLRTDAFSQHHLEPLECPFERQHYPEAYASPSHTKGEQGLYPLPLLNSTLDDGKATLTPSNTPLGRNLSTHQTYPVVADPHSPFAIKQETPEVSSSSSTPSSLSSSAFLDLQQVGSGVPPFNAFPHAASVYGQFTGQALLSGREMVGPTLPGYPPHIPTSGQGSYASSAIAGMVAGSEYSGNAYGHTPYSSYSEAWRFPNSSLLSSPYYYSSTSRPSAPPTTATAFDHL
# testDetails: PAX8 transcriptional activity inhibition in RMG-I – RMG-I cells, luciferase, cherry-pick, dose response (AID 687027);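 also: luciferase reporter driven by Pax8 target thyroperoxidase promoter measured by SteadyGlo luminescence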
# Type: functional, cell-based
Calls of active or inactive are those of the source.
Documented AC50 across a set of compounds
assayMetric: AC50

compound=Cc1cccc(-c2ccc([C@H]3[C@H]4CN(S(=O)(=O)c5cccc(C)c5)CCCCN4[C@H]3CO)cc2)c1 assaymetric=AC50 observedvalue="7.45 µM (active)"
compound=COc1cccc(-c2cnc3c(NC=O)cc(-c4ccc(OC)cc4OC)cn23)c1 assaymetric=AC50 observedvalue="2.93 µM (active)"
compound=C[C@@H]1CN([C@@H](C)CO)S(=O)(=O)c2ccc(C#C[C@@H](C)O)cc2O[C@H]1CN(C)Cc1ccc(-c2ccccc2)cc1 assaymetric=AC50 observedvalue="6.61 µM (active)"
compound=C[C@@H]1CN([C@@H](C)CO)C(=O)c2cc(NS(=O)(=O)c3ccc(F)cc3)ccc2O[C@@H](C)CCCCO[C@H]1CN(C)Cc1ccc(C(F)(F)F)cc1 assaymetric=AC50 observedvalue="7.5 µM (active)"
compound="COc1cc(C2C3=C(COC3=O)OC(C)(C)Oc3cc4c(cc32)OCO4)cc(OC)c1OC (stereo unspecified)" assaymetric=AC50 observedvalue="1.78 µM (active)"
compound=C[C@@H]1CN([C@H](C)CO)C(=O)c2cc(NC(=O)Nc3ccc(C(F)(F)F)cc3)ccc2O[C@@H](C)CCCCO[C@@H]1CN(C)Cc1ccccc1 assaymetric=AC50 observedvalue="6.4 µM (active)"
compound=C=CCn1c(C)cc(C2=NN=C(NCC)SC2)c1C assaymetric=AC50 observedvalue="0.267 µM (active)"
compound=C[C@@H]1CN([C@H](C)CO)C(=O)c2cc(NC(=O)c3ccncc3)ccc2O[C@@H](C)CCCCO[C@H]1CN(C)Cc1ccc(C(F)(F)F)cc1 assaymetric=AC50 observedvalue="12 µM (active)"
compound=C[C@H]1CCCCO[C@H](CN(C)C(=O)C2CCCCC2)[C@@H](C)CN([C@@H](C)CO)C(=O)c2cc(NS(=O)(=O)c3ccc(Cl)cc3)ccc2O1 assaymetric=AC50 observedvalue="11.5 µM (active)"
compound=CC(=O)Nc1cc(-c2cccc(C(=O)NCCN(C)C)c2)cn2c(-c3cccc(C(F)(F)F)c3)cnc12 assaymetric=AC50 observedvalue="11.5 µM (active)"
compound=CC(C)NC(=O)N(C)C[C@H]1OCCCC[C@H](C)Oc2ccc(NC(=O)Nc3ccc(C(F)(F)F)cc3)cc2C(=O)N([C@H](C)CO)C[C@@H]1C assaymetric=AC50 observedvalue="12.5 µM (active)"
compound=Cc1ccc(S(=O)(=O)Nc2ccc3c(c2)C(=O)N([C@H](C)CO)C[C@@H](C)[C@@H](CN(C)Cc2ccc(C(F)(F)F)cc2)OCCCC[C@H](C)O3)cc1 assaymetric=AC50 observedvalue="4.18 µM (active)"
compound=O=C(Nc1cccc(NC(=O)c2ccc([N+](=O)[O-])o2)c1)c1ccco1 assaymetric=AC50 observedvalue="5.2 µM (active)"
compound=C[C@H]1CCCCO[C@H](CN(C)S(=O)(=O)c2ccc(Cl)cc2)[C@@H](C)CN([C@@H](C)CO)C(=O)c2cc(NS(=O)(=O)c3ccc(Cl)cc3)ccc2O1 assaymetric=AC50 observedvalue="5.52 µM (active)"
compound=C/C(=N\NC(=O)c1[nH]nc2c1CCC2)c1cccs1 assaymetric=AC50 observedvalue="5.19 µM (active)"
compound="CC(C)(C)N(Cc1ccc2c(c1)OCO2)C(=O)/C=C\\[S+]([O-])c1ccccc1 (stereo unspecified)" assaymetric=AC50 observedvalue="6.14 µM (active)"
